Recorded log10 of Ki for the following compounds
# Target under test: rat MCH-1 (Rattus norvegicus)
# Sequence (P97639 whole entry): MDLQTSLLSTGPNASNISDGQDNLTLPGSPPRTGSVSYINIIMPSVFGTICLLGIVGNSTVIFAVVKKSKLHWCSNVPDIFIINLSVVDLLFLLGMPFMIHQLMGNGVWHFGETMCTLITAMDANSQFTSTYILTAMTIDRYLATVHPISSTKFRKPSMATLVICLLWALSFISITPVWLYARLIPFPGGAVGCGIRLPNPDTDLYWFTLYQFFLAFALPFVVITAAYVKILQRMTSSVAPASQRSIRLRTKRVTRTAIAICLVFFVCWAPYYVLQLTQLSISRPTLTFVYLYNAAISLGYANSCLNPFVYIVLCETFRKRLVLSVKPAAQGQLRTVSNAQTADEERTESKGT
# Test summary: Radioligand binding assay at cloned rat MCH1 receptor, [3H]Compound A, Peakr293 cell membranes
# Stated conditions: 0.08 nM [3H]Compound A, 25° C., 90 minutes
Hey, these are logged values: log10 of Ki, µM being the unit before logging.

Answered cases to consult:
O=C(CCCCc1ccccc1)Nc1cccc(C2CCNCC2)c1    -0.71
O=C(Nc1cccc(C2CCNCC2)c1)c1cccnc1Oc1ccccc1    -0.45
COc1ccccc1CCCCC(=O)Nc1cc(C2CCNCC2)c(F)cc1F    -1.33
O=C(CCCCC(=O)c1ccccc1)Nc1cccc(C2CCNCC2)c1    0.04
O=C(CCc1ccc(Oc2ccc(F)c(F)c2)cc1)Nc1cc(C2CCNCC2)ccc1F    -1.47
COc1ccccc1CCCCC(=O)Nc1cc(C2CCNCC2)ccc1F    -1.68
COc1ccc(CCCCC(=O)Nc2cccc(C3CCNCC3)c2)cc1    -0.32
O=C(CCCCCNc1ccc(F)c(F)c1)Nc1cccc(C2CCNCC2)c1    -0.36
O=C(CCCCC(=O)c1ccccc1)Nc1cc(C2CCNCC2)ccc1F    -0.50
COc1ccccc1CCCCC(=O)Nc1cccc(C2CCNCC2)c1    -1.10

// switching to the query compound
// query log10 of Ki value for entry COC(=O)C1=C(C)NC(=O)N(C(=O)NCCCC(=O)Nc2cccc(C3CCNCC3)c2)C1c1ccc(F)cc1 (centres unmarked) -0.85
